test: minimum pentetrazole shock test (min PS), protection against clonic cramp;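 note: albino NMRI mice, oral dosing, clonic seizures provoked 60 min later by subcutaneous pentetrazole 70 mg/kg, ED50 is the dose protecting half of animals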; assay type: in vivo, mice; conditions: Mus musculus, po, 1 h; mice, 70 mg/kg pentetrazole s.c., 60 minutes after p.o. administration; protection in 50% of the animals; read-out: Anticonvulsive activity Min PS ED50
RECORDED_METRIC: ED50

{"COMPOUND": "C=CCC(O)(CC=C)C1NC(=O)OC1C (stereo not drawn) [Example 34]", "RECORDED_METRIC": "ED50", "OBS_VALUE": "> 464 mg/kg"}
{"COMPOUND": "CC(O)(c1ccc(Cl)cc1)C1COC(=O)N1 (stereo not drawn) [Example 59]", "RECORDED_METRIC": "ED50", "OBS_VALUE": "> 464 mg/kg"}
{"COMPOUND": "CC(O)C1NC(=O)OC1c1ccccc1 (stereo not drawn) [Example 5]", "RECORDED_METRIC": "ED50", "OBS_VALUE": "150 mg/kg"}
{"COMPOUND": "O=C1NC(C(O)c2ccc(Cl)cc2)CO1 (stereo not drawn) [Example 4]", "RECORDED_METRIC": "ED50", "OBS_VALUE": "140 mg/kg"}
{"COMPOUND": "CCC(O)(c1ccccc1)C1COC(=O)N1C (stereo not drawn) [Example 64]", "RECORDED_METRIC": "ED50", "OBS_VALUE": "> 464 mg/kg"}
{"COMPOUND": "CCCC(O)(c1ccccc1)C1COC(=O)N1 (stereo not drawn) [Example 65]", "RECORDED_METRIC": "ED50", "OBS_VALUE": "175 mg/kg"}
{"COMPOUND": "CC1(CO)NC(=O)OC1(C)c1ccccc1 (stereo not drawn) [Example 6]", "RECORDED_METRIC": "ED50", "OBS_VALUE": "> 464 mg/kg"}
{"COMPOUND": "C=CCN1C(=O)OC(c2ccccc2)C1C(C)(C)O (stereo not drawn) [Example 39]", "RECORDED_METRIC": "ED50", "OBS_VALUE": "> 464 mg/kg"}
{"COMPOUND": "CCC(O)(c1ccc(Cl)cc1)C1COC(=O)N1 (stereo not drawn) [Example 60]", "RECORDED_METRIC": "ED50", "OBS_VALUE": "> 464 mg/kg"}
